target: T1, PSMA Fab (SEQ ID NOs: 19, 20); assay: clonal phage ELISA; biotinylated PSMA Fab captured on neutravidin plate, bound phage detected with anti-M13-HRP
T1 construct: also called Anti-PSMA Fab; 006 PSMA Fab
Where no end group is shown, it is not given here.
observedProperty: Phage binding ELISA signal, Anti-PSMA Fab
Simply state the number, no unit and no words.

// Phage binding ELISA signal, Anti-PSMA Fab lookup, binder = IRALCEPSWMCTGF (Tested as clonal phage supernatant; not shown: pIII coat protein of the bacteriophage to which the peptide is fused) [Phage-3804 (Peptide-180 library clone, SEQ ID NO: 4120)] , result: 1.3

Value of measured Phage binding ELISA signal, Anti-PSMA Fab for the entry GDQMCIPLWMCEGF (Tested as clonal phage supernatant; not shown: pIII coat protein of the bacteriophage to which the peptide is fused) [Phage-3810 (Peptide-180 library clone, SEQ ID NO: 4126)] : 1.29

Value of Phage binding ELISA signal, Anti-PSMA Fab reported for the binder DQAACVPAWMCTGF (Tested as clonal phage supernatant; not shown: pIII coat protein of the bacteriophage to which the peptide is fused) [Phage-3806 (Peptide-180 library clone, SEQ ID NO: 4122)] is 1.3

Form field Phage binding ELISA signal, Anti-PSMA Fab, entry VVSHCKPIWMCSGF (Tested as clonal phage supernatant; not shown: pIII coat protein of the bacteriophage to which the peptide is fused) [Phage-3807 (Peptide-180 library clone, SEQ ID NO: 4123)] : 1.29

What the record says about LELLCRPSWMCEGF (cysteine pairing not given here; also: displayed on phage as fusion to pIII, junction not given here, Tested as clonal phage supernatant; not shown: pIII coat protein of the bacteriophage to which the peptide is fused) [Phage-3800 (Peptide-180 library clone, SEQ ID NO: 4116)] : Phage binding ELISA signal, Anti-PSMA Fab is 1.3

What the record says about AYPMCSPAWMCAGF (cysteine pairing not given here; also: displayed on phage as fusion to pIII, junction not given here, Tested as clonal phage supernatant; not shown: pIII coat protein of the bacteriophage to which the peptide is fused) [Phage-3812 (Peptide-180 library clone, SEQ ID NO: 4128)] : Phage binding ELISA signal, Anti-PSMA Fab is 1.29
